- assayed system: GLP-1R (Homo sapiens, UniProt P43220)
- Sequence (P43220 24-463): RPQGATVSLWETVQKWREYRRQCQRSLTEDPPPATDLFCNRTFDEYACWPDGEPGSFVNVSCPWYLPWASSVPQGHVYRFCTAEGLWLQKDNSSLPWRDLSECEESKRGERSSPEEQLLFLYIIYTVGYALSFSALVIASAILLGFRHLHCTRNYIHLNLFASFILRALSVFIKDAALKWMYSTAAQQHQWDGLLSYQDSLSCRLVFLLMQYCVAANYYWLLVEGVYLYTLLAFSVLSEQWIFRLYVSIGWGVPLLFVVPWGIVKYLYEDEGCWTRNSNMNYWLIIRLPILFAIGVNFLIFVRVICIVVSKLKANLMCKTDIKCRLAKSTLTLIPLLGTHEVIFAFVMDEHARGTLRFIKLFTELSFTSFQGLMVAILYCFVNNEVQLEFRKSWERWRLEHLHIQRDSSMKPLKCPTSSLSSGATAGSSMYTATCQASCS
- Sequence (P01275 100-127 partner limits assumed): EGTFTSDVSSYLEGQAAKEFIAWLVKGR
- assay comment: EC20 GLP-1(9-36) PAM cAMP assay: dose response of compound in the presence of fixed concentration of GLP-1(9-36)
- assay context: GLP-1R CRE-bla CHO-K1 cells, compound dose response in presence of fixed concentration of GLP-1(9-36)
pEC50: −log10 of the molar value.
Catalogue of pEC50 values

| smiles input | assayed system | pEC50 |
| --- | --- | --- |
| COc1ccc(-c2ccc(-c3nc(-c4ccc(C[C@H](NC(=O)c5ccc(C(C)(C)C)cc5)C(=O)O)cc4)no3)cc2)cc1 | GLP-1R (Homo sapiens, UniProt P43220) | 5.30 to 5.60 |

The measured pEC50 associated with CC(C)(C)c1ccc(C(=O)N[C@H](CC(=O)O)Cc2ccc(-c3noc(-c4ccc(N5CCCCC5)cc4)n3)cc2)cc1 reads 5.30 to 5.60

Sample CCCCCCCOc1ccc(-c2cnc(-c3ccc(C[C@H](NC(=O)c4ccc(C(C)(C)C)s4)C(=O)N(C)CCC(=O)O)cc3)nc2)cc1 ; pEC50 observed: 5.60 to 6.10

* * *

- assayed system: GLP-1R (Homo sapiens)
- assay comment: EC20 GLP-1(9-36) PAM cAMP assay: dose response of compound in the presence of fixed concentration of GLP-1(9-36)
- assay context: GLP-1R CRE-bla CHO-K1 cells, compound dose response in presence of fixed concentration of GLP-1(9-36)
pEC50: −log10 of the molar value.
observation type: pEC50

| smiles input | observation type | experimental value |
| --- | --- | --- |
| CC(C)(C)c1ccc(-c2cnc(-c3ccc(C[C@H](NC(=O)c4ccc(C(C)(C)C)s4)C(=O)N[C@H](CCC(=O)O)C(=O)O)cc3)nc2)cc1 | pEC50 | 5.60 to 6.10 |
| CCCCCCCOc1ccc(-c2cnc(-c3ccc(C[C@H](NC(=O)c4ccc(C(C)(C)C)s4)C(=O)N[C@@H](CCC(N)=O)C(=O)O)cc3)nc2)cc1 | pEC50 | > 6.10 |
| CCCCCCCOc1ccc(-c2cnc(-c3ccc(C[C@H](NC(=O)c4cccc(C(C)C)c4)C(=O)O)cc3)nc2)cc1 | pEC50 | 5.60 to 6.10 |
| CCCCCCCOc1ccc(-c2cnc(-c3ccc(C[C@H](NC(=O)c4coc(C(C)C)n4)C(=O)O)cc3)nc2)cc1 | pEC50 | 5.60 to 6.10 |
| COc1cc(OC)cc(-c2ccc(-c3nc(-c4ccc(C[C@H](NC(=O)c5ccc(C(C)(C)C)cc5)C(=O)O)cc4)no3)cc2)c1 | pEC50 | 5.30 to 5.60 |

Note to self: pEC50 recorded for Cc1ccccc1-c1ccc(-c2nc(-c3ccc(C[C@H](NC(=O)c4ccc(C(C)(C)C)cc4)C(=O)O)cc3)no2)cc1 was 5.30 to 5.60

* * *

- assayed system: GLP-1R (Homo sapiens, UniProt P43220)
- assay comment: EC20 GLP-1(9-36) PAM cAMP assay: dose response of compound in the presence of fixed concentration of GLP-1(9-36)
- assay context: GLP-1R CRE-bla CHO-K1 cells, compound dose response in presence of fixed concentration of GLP-1(9-36)
pEC50: −log10 of the molar value.
observation type: pEC50

Answered examples (2):
| compound | experimental value |
| --- | --- |
| CC(C)(C)c1ccc(C(=O)N[C@@H](Cc2ccc(-c3ncc(-c4ccc(Cl)c(Cl)c4)cn3)cc2)C(=O)O)cc1 [Compound 213] | 5.30 to 5.60 |
| CC(C)(C)c1ccc(-c2cnc(-c3ccc(C[C@H](NC(=O)c4ccc(C(C)(C)C)s4)C(=O)N[C@H](CC(=O)O)C(=O)O)cc3)nc2)cc1 [Compound 355] | 5.60 to 6.10 |

Attention now shifts to the item below.
Fill in: GLP-1R (Homo sapiens, UniProt P43220) pEC50 for CCc1ccc(C(=O)N[C@@H](Cc2ccc(-c3ncc(-c4ccc(C(C)(C)C)cc4)cn3)cc2)C(=O)O)s1 [Compound 166] = 5.60 to 6.10

* * *

- assayed system: GLP-1R (Homo sapiens, UniProt P43220)
- assay comment: EC20 GLP-1(9-36) PAM cAMP assay: dose response of compound in the presence of fixed concentration of GLP-1(9-36)
- assay context: GLP-1R CRE-bla CHO-K1 cells, compound dose response in presence of fixed concentration of GLP-1(9-36)
observation type: EC50

Use the examples below as a reference point.
| molecule | experimental value |
| --- | --- |
| CCCCCCCCOc1ccc(-c2cnc(-c3ccc(C[C@H](NC(=O)c4ccc(C(C)(C)C)s4)C(=O)O)cc3)nc2)cc1 | 800 to 2500 nM |
| CCCCCCCOc1ccc(-c2cnc(-c3ccc(C[C@H](NC(=O)c4ccc(C(C)(C)C)s4)C(=O)N[C@H](CC(=O)O)C(=O)O)cc3)nc2)cc1 | 800 to 2500 nM |
| CCCOc1ccc(-c2cnc(-c3ccc(C[C@H](NC(=O)c4ccc(C(C)(C)C)cc4)C(=O)O)cc3)nc2)cc1 | 800 to 2500 nM |
| CC(C)(C)c1ccc(C(=O)N[C@@H](Cc2ccc(-c3noc(-c4ccc(-c5cc(F)ccc5F)cc4)n3)cc2)C(=O)O)cc1 | 2500 to 5000 nM |
| CCCCCCCOc1ccc(-c2ncc(-c3ccc(CC(NC(=O)c4ccc(C(C)(C)C)cc4)C(=O)O)cc3)s2)cc1 (stereo not drawn) | 800 to 2500 nM |

# EC50 (molecule: CC(C)(C)c1ccc(C(=O)N[C@@H](Cc2ccc(-c3noc(-c4ccc(Oc5ccccc5)cc4)n3)cc2)C(=O)O)cc1 ) is 2500 to 5000 nM

* * *

- assayed system: GLP-1R (Homo sapiens, UniProt P43220)
- assay comment: EC20 GLP-1(9-36) PAM cAMP assay: dose response of compound in the presence of fixed concentration of GLP-1(9-36)
- assay context: GLP-1R CRE-bla CHO-K1 cells, compound dose response in presence of fixed concentration of GLP-1(9-36)
observation type: EC50

Sample answers from the record:
| smiles input | assayed system | experimental value |
| --- | --- | --- |
| CCCCCCCOc1ccc(-c2cnc(-c3ccc(C[C@H](NC(=O)c4ccc(OC)cc4F)C(=O)O)cc3)nc2)cc1 | GLP-1R (Homo sapiens, UniProt P43220) | 800 to 2500 nM |
| Cc1ccc(-c2ccc(-c3cnc(-c4ccc(C[C@H](NC(=O)c5ccc(C(C)(C)C)s5)C(=O)O)cc4)nc3)cc2)cc1 | GLP-1R (Homo sapiens, UniProt P43220) | 800 to 2500 nM |

Please examine the following record next.
Recorded result, CCCCCCCOc1ccc(-c2cnc(-c3ccc(C[C@H](NC(=O)c4ccc(C(C)(C)C)s4)C(=O)N[C@H](C)CC(=O)O)cc3)nc2)cc1 , EC50: < 800 nM

* * *

The entries below are paired with their reported EC50.
- assayed system: GLP-1R (Homo sapiens, UniProt P43220)
- assay comment: EC20 GLP-1(9-36) PAM cAMP assay: dose response of compound in the presence of fixed concentration of GLP-1(9-36)
- assay context: GLP-1R CRE-bla CHO-K1 cells, compound dose response in presence of fixed concentration of GLP-1(9-36)

Take a look at these entries with their results.
| smiles input | EC50 |
| --- | --- |
| CCCCCCCOc1ccc(-c2cnc(-c3ccc(C[C@H](NC(=O)c4ccc(C(C)(C)C)cc4)C(=O)NS(C)(=O)=O)cc3)nc2)cc1 | < 0.8 µM |
| CC(C)(C)c1ccc(-c2ccc(-c3ccc(C[C@H](NC(=O)c4ccc(C(C)(C)C)s4)C(=O)O)cc3)nn2)cc1 | 2.5 to 5 µM |
| CCCCCCCOc1ccc(-c2cnc(-c3ccc(C[C@H](NC(=O)c4ccc(C(C)(C)C)s4)C(=O)N[C@@H](CC(N)=O)C(=O)O)cc3)nc2)cc1 | < 0.8 µM |
| CCCCCCCOc1ccc(-c2cnc(-c3ccc(C[C@H](NC(=O)c4ccc(C(C)(C)C)cc4)C(=O)NCC(=O)O)cc3)nc2)cc1 | < 0.8 µM |

Given item CCCCCCCOc1ccc(-c2cnc(-c3ccc(C[C@H](NC(=O)c4cc(C)c(CC)s4)C(=O)O)cc3)nc2)cc1 , the value recorded as its EC50 is 0.8 to 2.5 µM

The compound CC(C)(C)c1ccc(C(=O)N[C@@H](Cc2ccc(-c3noc(-c4ccc(-c5ccccc5F)cc4)n3)cc2)C(=O)O)cc1 showed EC50 equal to 0.8 to 2.5 µM

* * *

Catalogue of pEC50 readings, one per entry.
- assayed system: GLP-1R (Homo sapiens)
- assay comment: EC20 GLP-1(9-36) PAM cAMP assay: dose response of compound in the presence of fixed concentration of GLP-1(9-36)
- assay context: GLP-1R CRE-bla CHO-K1 cells, compound dose response in presence of fixed concentration of GLP-1(9-36)
pEC50: −log10 of the molar value.

These recorded examples may help you get a feel for the data.
| compound | observation type | experimental value |
| --- | --- | --- |
| CCCCCCCOc1ccc(-c2cnc(-c3ccc(C[C@H](NC(=O)c4ccc(O)cc4)C(=O)O)cc3)nc2)cc1 [Compound 114] | pEC50 | 5.60 to 6.10 |
| CCCCCCCOc1ccc(-c2cnc(-c3ccc(C[C@H](NC(=O)c4coc(C(C)(C)C)n4)C(=O)O)cc3)nc2)cc1 [Compound 296] | pEC50 | 5.60 to 6.10 |
| CCCCCCCOc1ccc(-c2cnc(-c3ccc(C[C@H](NC(=O)c4ccc(C(C)(C)C)s4)C(=O)O)cc3)cn2)cc1 [Compound 281] | pEC50 | > 6.10 |
| CNc1ccc(-c2nc(-c3ccc(C[C@H](NC(=O)c4ccc(C(C)(C)C)cc4)C(=O)O)cc3)no2)cc1 [Compound 63] | pEC50 | 5.60 to 6.10 |
| Cn1ccc2cc(-c3nc(-c4ccc(C[C@H](NC(=O)c5ccc(C(C)(C)C)cc5)C(=O)O)cc4)no3)ccc21 [Compound 50] | pEC50 | 5.30 to 5.60 |
| CCCCCCCOc1ccc(-c2cnc(-c3ccc(C[C@H](NC(=O)c4ccc(CCC)s4)C(=O)O)cc3)nc2)cc1 [Compound 147] | pEC50 | 5.30 to 5.60 |
| CC(C)c1ccc(-c2cnc(-c3ccc(C[C@H](NC(=O)c4ccc(C(C)(C)C)cc4)C(=O)O)cc3)nc2)cc1 [Compound 195] | pEC50 | 5.60 to 6.10 |
| CCCCCCCOc1ccc(-c2cnc(-c3ccc(C[C@H](NC(=O)c4ccc(C(C)C)cc4)C(=O)N[C@H](CO)C(=O)O)cc3)nc2)cc1 [Compound 315] | pEC50 | 5.60 to 6.10 |
| CCCCCCOc1ccc(-c2cnc(-c3ccc(C[C@H](NC(=O)c4ccc(C(C)(C)C)cc4)C(=O)O)cc3)nc2)cc1 [Compound 225] | pEC50 | > 6.10 |
| CCCCCCCOc1ccc(-c2cnc(-c3ccc(CC(NC(=O)c4ccc(C(C)(C)C)cc4)C(=O)O)cc3)s2)cc1 (centres unmarked) [Compound 81] | pEC50 | 5.00 to 5.30 |

The compound CCCCCCCOc1ccc(-c2cnc(-c3ccc(C[C@H](NC(=O)c4ccc(CCCC)cc4)C(=O)O)cc3)nc2)cc1 [Compound 107] , when measured on GLP-1R (Homo sapiens), yielded pEC50 of 5.60 to 6.10

// returns pEC50 for CC(C)(C)c1ccc(C(=O)N[C@@H](Cc2ccc(-c3ncc(-c4ccc(F)cc4F)cn3)cc2)C(=O)O)cc1 [Compound 208] with GLP-1R (Homo sapiens); value = 5.30 to 5.60

Lab note: compound CCCCCCCOc1ccc(-c2cnc(-c3ccc(C[C@H](NC(=O)c4ccc(OC)cc4)C(=O)O)cc3)nc2)cc1 [Compound 86] tested on GLP-1R (Homo sapiens); recorded pEC50 was 5.60 to 6.10

Tested on GLP-1R (Homo sapiens): CCCCCCCOc1ccc(-c2cnc(-c3ccc(C[C@H](NC(=O)c4ccc(C(C)C)cc4)C(=O)N[C@@H](C)C(=O)O)cc3)nc2)cc1 [Compound 305] . Observed pEC50: 5.60 to 6.10
